Target: TraN_G47A-G48A (Enterococcus faecalis plasmid pIP501, UniProt Q7BVV5 1-122, G47A;G48A)
Test: MST; MST in PBS-T (pH and temperature not stated); 50 nM RED-tris-NTA labelled His-protein, dsDNA 0.781 nM to 12.8 uM; Monolith NT.115, 60% LED and MST power
Conditions: protein: recombinant; tags: N-terminal 7xHis (pQTEV); blunt
QUANTITY_NAME: Kd (nM)
Give bare numbers, in nM.

In: Field request: Kd | item: oBS 34-mer (original TraN binding site) (dsDNA) DNA 1: CGGAAATGTCAGGTTAAACATATTTACTTTTATA DNA 2: TATAAAAGTAAATATGTTTAACCTGACATTTCCG
Out: 48.8
